Give concentration at 4 h for every item shown.
Test: in vivo
Conditions: male, Balb/c nude, mouse, ip, 15 mg/kg, Calculated Concentration, Mean
Numbers only, in ng/mL.

Would you mind giving concentration at 4 h for every compound in the list below?
1. COC(=O)[C@H]1Cc2c([nH]c3ccccc23)[C@H](c2ccc(S(=O)(=O)N[C@]34C[C@H]5C[C@H](C[C@H](C5)C3)C4)cc2)N1C(=O)CCl [Example 24]
2. COC(=O)[C@H]1Cc2c([nH]c3ccccc23)[C@H](c2ccc(C(=O)OC(C)(C)C)cc2)N1C(=O)CCl [Example 1]

Result:
1: 4.56; 2: 5.74

* * *

Give IC50 for every item shown.
System: A549
Test: Cell viability assay, A549 cells
Assay type: cell-based
Details: Homo sapiens, A549, Cell Line A549; read-out: IC50
One number for each entry, in µM.

Recorded IC50, per entry:
> print(dat)
                      smiles.representation  measured.property  units.symbol  readout.number
1  COC(=O)[C@H]1Cc2c([nH]c3ccccc23)[C@H](c2ccc(C(=O)OC(C)(C)C)cc2)N1C(=O)C(C)(C)CCl               IC50            µM            4.45
2  CCCC[C@H]1Cc2c([nH]c3ccccc23)[C@H](c2ccc(N3CCOCC3)cc2)N1C(=O)CCl               IC50            µM             5.7

Okay, now this compound:
Problem: Can you share its IC50? I mean this compound: "C#CC(=O)N1[C@@H](c2ccc(C3CCOCC3)cc2)c2[nH]c3ccccc3c2C[C@@H]1C"
Result: 14.2

* * *

Give IC50 for every item shown.
System: SJSA-1
Assay: Cell proliferation (Alamar Blue) assay, SJSA-1 osteosarcoma, with/without ferrostatin
Assay type: cell-based, human
Conditions: Homo sapiens, SJSA-1, Cell Line SJSA-1; read-out: IC50
State the value with its unit after it.

Recorded IC50, per entry:
> print(dat)
                      smiles.representation    result
1  C[C@H]1Cc2c([nH]c3ccccc23)[C@H](c2ccc(S(F)(F)(F)(F)F)cc2)N1C(=O)CCl  0.115 µM
2  C#CC(=O)N1[C@@H](CCCC)Cc2c([nH]c3c(F)cc(CO)cc23)[C@@H]1c1ccc(F)cc1  0.146 µM
3  CCS(=O)(=O)N1CCN(c2ccc([C@H]3c4[nH]c5ccccc5c4C[C@H](C)N3C(=O)CCl)cc2)CC1  0.019 µM
4  C[C@H]1Cc2c([nH]c3ccccc23)[C@H](c2ccc3c(c2)CNC3=O)N1C(=O)CCl   0.56 µM
5  C#CC(=O)N1[C@@H](c2ccc(F)cc2F)c2[nH]c3ccccc3c2C[C@@H]1C  0.448 µM

Would you mind giving IC50 for every compound in the list below?
1. CCCC[C@H]1Cc2c([nH]c3ccccc23)[C@H](c2ccc(S(=O)(=O)NC3CC3)cc2F)N1C(=O)CCl
2. C#CC(=O)N1[C@@H](CCCC)Cc2c([nH]c3ccccc23)[C@@H]1c1ccc(S(=O)(=O)NC2CC2)cc1F

Result:
1: 0.001 µM; 2: 0.011 µM

* * *

Tested on: SJSA-1
Assay: Cell viability assay (CellTiter Glo), osteosarcoma SJSA-1
Format: cell-based
Conditions: Homo sapiens, 96 hours
Give IC50 for every item shown.

> print(dat)
                                   molecule  system.tested  measured.property    result
1  COC(=O)[C@H]1Cc2c([nH]c3ccccc23)[C@H](c2ccc(C(=O)N3CCOCC3)cc2)N1C(=O)CCl [Example 26]         SJSA-1               IC50  0.339 µM

Would you mind giving IC50 for every molecule in the list below?
1. COC(=O)[C@H]1Cc2c([nH]c3ccccc23)[C@H](c2ccc(C(=O)N(C)C)cc2)N1C(=O)CCl [Example 8]
2. COC(=O)[C@H]1Cc2c([nH]c3ccccc23)[C@H](c2ccc(C(=O)OC[C@]34C[C@H]5C[C@H](C[C@H](C5)C3)C4)cc2)N1C(=O)CCl [Example 6]

Result:
0.25 µM
0.146 µM

Sourced from patent US11098040B2
